Read-out record for Human autotaxin enzyme (Homo sapiens): IC50
ATTRIBUTE MEASURED: IC50

COMPOUND: CCCCCC1CN(Cc2cccc(C)c2)C(=O)c2cc(-c3ccc(Cl)cc3)nn21 (stereo not shown)
RESULT: ≥ 1 µM
--
COMPOUND: CCCCC1CN(Cc2ccc(C#N)cc2)C(=O)c2cc(-c3ccc(Cl)cc3NC(=O)NC)nn21 (stereo not shown)
RESULT: 0.1 to 1 µM
--
COMPOUND: C[C@H]1CN(Cc2cccc(C#N)c2)C(=O)c2cc(-c3ccc(Cl)cc3)nn21
RESULT: 0.1 to 1 µM
--
COMPOUND: CCCCCC1CN(Cc2ccccc2S(=O)(=O)N2CCOCC2)C(=O)c2cc(-c3ccc(Cl)cc3)nn21 (stereo not shown)
RESULT: ≥ 1 µM

###

Read-out record for Human autotaxin enzyme (Homo sapiens): IC50
ATTRIBUTE MEASURED: IC50

COMPOUND: C[C@H]1CN(Cc2ccc(CC(=O)O)cc2)C(=O)c2cc(-c3ccc(Cl)cc3)nn21
ATTRIBUTE MEASURED: IC50
RESULT: 10 to 100 nM
//
COMPOUND: CCCCCC1CN(CNC(C)=O)C(=O)c2cc(-c3ccc(Cl)cc3)nn21 (stereo not drawn)
ATTRIBUTE MEASURED: IC50
RESULT: 10 to 100 nM
//
COMPOUND: CC(=O)Nc1cc(C#N)ccc1-c1cc2n(n1)[C@@H](C)CN(C1CCN(CC(F)(F)F)C1=O)C2=O (stereo partly drawn)
ATTRIBUTE MEASURED: IC50
RESULT: 10 to 100 nM
//
COMPOUND: CCCCC1CN(Cc2ccc(C#N)cc2)C(=O)c2cc(C3=CCC(C(F)(F)F)CC3)nn21 (stereo not drawn)
ATTRIBUTE MEASURED: IC50
RESULT: 100 to 1000 nM
//
COMPOUND: CCCCCC1CN(CC(=O)N2CCCC(CO)C2)C(=O)c2cc(-c3ccc(Cl)cc3)nn21 (stereo not drawn)
ATTRIBUTE MEASURED: IC50
RESULT: 10 to 100 nM
//
COMPOUND: CCCCC1CN(Cc2ccc(C#N)cc2)C(=O)c2cc(-c3ccc(Cl)cc3N)nn21 (stereo not drawn)
ATTRIBUTE MEASURED: IC50
RESULT: 100 to 1000 nM
//
COMPOUND: CC(=O)Nc1cc(Cl)ccc1-c1cc2n(n1)[C@@H](C)CN(C[C@H]1CNC(=O)O1)C2=O
ATTRIBUTE MEASURED: IC50
RESULT: 10 to 100 nM
//
COMPOUND: CCCCCC1CN(CC(=O)N2CCC(CC(=O)O)CC2)C(=O)c2cc(-c3ccc(Cl)cc3)nn21 (stereo not drawn)
ATTRIBUTE MEASURED: IC50
RESULT: 10 to 100 nM
//
COMPOUND: CCCCC1CN(CC2CN(C(C)C)C(=O)O2)C(=O)c2cc(-c3ccc(Cl)cc3)nn21 (stereo not drawn)
ATTRIBUTE MEASURED: IC50
RESULT: 10 to 100 nM
//
COMPOUND: CCCCCC1CN(Cc2ccc(Oc3ccccc3)cc2)C(=O)c2cc(-c3ccc(Cl)cc3)nn21 (stereo not drawn)
ATTRIBUTE MEASURED: IC50
RESULT: ≥ 1000 nM
//
COMPOUND: CCCOCC1CN(Cc2cccc(C(=O)O)c2)C(=O)c2cc(-c3ccc(Cl)cc3)nn21 (stereo not drawn)
ATTRIBUTE MEASURED: IC50
RESULT: < 10 nM
//
COMPOUND: CCCCC1CN(CC(=O)NCCC#N)C(=O)c2cc(-c3ccc(Cl)cc3)nn21 (stereo not drawn)
ATTRIBUTE MEASURED: IC50
RESULT: 10 to 100 nM
//
COMPOUND: C[C@H]1CN(Cc2ccc(C#N)cc2)C(=O)c2cc(-c3ccc(Cl)cc3NC(=O)CN(C)C)nn21
ATTRIBUTE MEASURED: IC50
RESULT: 10 to 100 nM
//
COMPOUND: CCCCCC1CN(CC(=O)NCc2ccc(C(=O)O)cc2)C(=O)c2cc(-c3ccc(Cl)cc3)nn21 (stereo not drawn)
ATTRIBUTE MEASURED: IC50
RESULT: 100 to 1000 nM
//
COMPOUND: CCCCC1CN(Cc2ccc(C#N)cc2)C(=O)c2cc(-c3ccc(Cl)cc3CN(C)C)nn21 (stereo not drawn)
ATTRIBUTE MEASURED: IC50
RESULT: ≥ 1000 nM
//
COMPOUND: CCCCCCC1CCCN1C(=O)CN1CC(CCCCC)n2nc(-c3ccc(Cl)cc3)cc2C1=O (stereo not drawn)
ATTRIBUTE MEASURED: IC50
RESULT: ≥ 1000 nM
//
COMPOUND: C[C@H]1CN(CC(=O)N(C)CCC#N)C(=O)c2cc(-c3ccc(C#N)cc3NC(=O)C(F)(F)F)nn21
ATTRIBUTE MEASURED: IC50
RESULT: < 10 nM
//
COMPOUND: CCCCC1CN(CC2CCOC2)C(=O)c2cc(-c3ccc(Cl)cc3)nn21 (stereo not drawn)
ATTRIBUTE MEASURED: IC50
RESULT: 10 to 100 nM
//
COMPOUND: CCCCCC1CN(CC(=O)N2CCCCC2CC)C(=O)c2cc(-c3ccc(Cl)cc3)nn21 (stereo not drawn)
ATTRIBUTE MEASURED: IC50
RESULT: 100 to 1000 nM
//
COMPOUND: N#Cc1ccc(CN2CC(CC(F)(F)C(F)(F)C(F)(F)F)n3nc(-c4ccc(Cl)cc4)cc3C2=O)cc1 (stereo not drawn)
ATTRIBUTE MEASURED: IC50
RESULT: ≥ 1000 nM
//
COMPOUND: CCCCCC1CN(c2ccc(C(=O)O)cc2)C(=O)c2cc(-c3ccc(Cl)cc3)nn21 (stereo not drawn)
ATTRIBUTE MEASURED: IC50
RESULT: 100 to 1000 nM
//
COMPOUND: O=C(O)C1CCN(C(=O)CN2C(=O)c3cc(-c4ccc(Cl)cc4)nn3[C@H]3CCC[C@H]32)CC1
ATTRIBUTE MEASURED: IC50
RESULT: 100 to 1000 nM
//
COMPOUND: CCCCC1CN(CC(=O)NCC#N)C(=O)c2cc(-c3ccc(Cl)cc3)nn21 (stereo not drawn)
ATTRIBUTE MEASURED: IC50
RESULT: 10 to 100 nM
//
COMPOUND: CCCCCC1CN(CC(=O)NCCCN(C)C)C(=O)c2cc(-c3ccc(Cl)cc3)nn21 (stereo not drawn)
ATTRIBUTE MEASURED: IC50
RESULT: ≥ 1000 nM
//
COMPOUND: CCCCC1CN(Cc2ccc(C#N)cc2)C(=O)c2cc(N3[C@@H]4CC[C@H]3CC(F)(F)C4)nn21 (stereo partly drawn)
ATTRIBUTE MEASURED: IC50
RESULT: ≥ 1000 nM
//
COMPOUND: CCCCCC1CN(CC(=O)N2CCCCC2c2ccccc2)C(=O)c2cc(-c3ccc(Cl)cc3)nn21 (stereo not drawn)
ATTRIBUTE MEASURED: IC50
RESULT: 100 to 1000 nM
//
COMPOUND: C[C@H]1CN(CC(=O)N(C)CCC#N)C(=O)c2cc(-c3ccc(C#N)cc3NC(=O)CC(F)(F)F)nn21
ATTRIBUTE MEASURED: IC50
RESULT: 10 to 100 nM
//
COMPOUND: CCCCC1CN(CNC(C)=O)C(=O)c2cc(-c3ccc(Cl)cc3)nn21 (stereo not drawn)
ATTRIBUTE MEASURED: IC50
RESULT: 10 to 100 nM
//
COMPOUND: CC(C)(O)CNC(=O)CN1CC(COCC(F)(F)F)n2nc(-c3ccc(Cl)cc3)cc2C1=O (stereo not drawn)
ATTRIBUTE MEASURED: IC50
RESULT: 100 to 1000 nM
//
COMPOUND: CCCCC1CN(CC(=O)NCC(O)CO)C(=O)c2cc(-c3ccc(Cl)cc3)nn21 (stereo not drawn)
ATTRIBUTE MEASURED: IC50
RESULT: 100 to 1000 nM

###

- TESTED ON: Human autotaxin enzyme (Homo sapiens, UniProt Q13822)
- Construct: purchased R&D System
- MEASUREMENT PROTOCOL: Evaluation of autotaxin inhibitor, Method C (18:0 Lyso PC substrate, choline assay, Resorufin fluorescence)
- Assay type: biochemical
- CONDITION INFO: Method C (Test Example 3), read-out: Inhibitory activity (enzyme inhibitory activity, IC50)
ATTRIBUTE MEASURED: IC50

COMPOUND: CCCCCC1CN(CC(=O)N2CCC(N(C)C)CC2)C(=O)c2cc(-c3ccc(Cl)cc3)nn21 (stereo not shown) [Compound I-0111]
TESTED ON: Human autotaxin enzyme (Homo sapiens, UniProt Q13822)
RESULT: ≥ 1 µM
--
COMPOUND: CCCCCC1CN(CC(=O)NCCCC(=O)O)C(=O)c2cc(-c3ccc(Cl)cc3)nn21 (stereo not shown) [Compound I-0047]
TESTED ON: Human autotaxin enzyme (Homo sapiens, UniProt Q13822)
RESULT: 0.01 to 0.1 µM
--
COMPOUND: CCCCCC1CN(CNC(=O)OC(C)(C)C)C(=O)c2cc(-c3ccc(Cl)cc3)nn21 (stereo not shown) [Compound I-0005]
TESTED ON: Human autotaxin enzyme (Homo sapiens, UniProt Q13822)
RESULT: 0.1 to 1 µM
--
COMPOUND: CCCCCC1CN(Cc2cccc(C#N)c2)C(=O)c2cc(-c3ccc(Cl)cc3)nn21 (stereo not shown) [Compound I-0131]
TESTED ON: Human autotaxin enzyme (Homo sapiens, UniProt Q13822)
RESULT: 0.1 to 1 µM
--
COMPOUND: CCCCCC1CN(c2ccncc2)C(=O)c2cc(-c3ccc(Cl)cc3)nn21 (stereo not shown) [Compound I-0200]
TESTED ON: Human autotaxin enzyme (Homo sapiens, UniProt Q13822)
RESULT: ≥ 1 µM
--
COMPOUND: CCCCC1CN(Cc2ccc(C#N)cc2)C(=O)c2cc(N3CCC(C(F)(F)F)CC3)nn21 (stereo not shown) [Compound I-0305]
TESTED ON: Human autotaxin enzyme (Homo sapiens, UniProt Q13822)
RESULT: 0.1 to 1 µM
--
COMPOUND: C[C@H]1CN(Cc2ccc(C#N)cc2)C(=O)c2cc(-c3ccc(Cl)cc3F)nn21 [Compound I-0327]
TESTED ON: Human autotaxin enzyme (Homo sapiens, UniProt Q13822)
RESULT: ≥ 1 µM
--
COMPOUND: CCCOCC1CN(CC(=O)O)C(=O)c2cc(-c3ccc(Cl)cc3)nn21 (stereo not shown) [Compound I-0253]
TESTED ON: Human autotaxin enzyme (Homo sapiens, UniProt Q13822)
RESULT: ≥ 1 µM
--
COMPOUND: C[C@H]1CN(Cc2ccc(C#N)cc2)C(=O)c2cc(-c3ccc(Cl)cc3CC#N)nn21 [Compound I-0300]
TESTED ON: Human autotaxin enzyme (Homo sapiens, UniProt Q13822)
RESULT: ≥ 1 µM
--
COMPOUND: CCCCC1CNC(=O)c2cc(-c3ccc(Cl)cc3)nn21 (stereo not shown) [Compound I-0197]
TESTED ON: Human autotaxin enzyme (Homo sapiens, UniProt Q13822)
RESULT: ≥ 1 µM
--
COMPOUND: CCCCC1CN(CC(=O)NC2(C#N)CC2)C(=O)c2cc(-c3ccc(Cl)cc3)nn21 (stereo not shown) [Compound I-0187]
TESTED ON: Human autotaxin enzyme (Homo sapiens, UniProt Q13822)
RESULT: 0.1 to 1 µM
--
COMPOUND: CCCCC1CN(CCN2CCOCC2)C(=O)c2cc(-c3ccc(Cl)cc3)nn21 (stereo not shown) [Compound I-0273]
TESTED ON: Human autotaxin enzyme (Homo sapiens, UniProt Q13822)
RESULT: 0.1 to 1 µM
--
COMPOUND: CCCCC1CN(C2COC2)C(=O)c2cc(-c3ccc(Cl)cc3)nn21 (stereo not shown) [Compound I-0274]
TESTED ON: Human autotaxin enzyme (Homo sapiens, UniProt Q13822)
RESULT: 0.1 to 1 µM
--
COMPOUND: CCCCCC1CN(CC(=O)Nc2ccccn2)C(=O)c2cc(-c3ccc(Cl)cc3)nn21 (stereo not shown) [Compound I-0073]
TESTED ON: Human autotaxin enzyme (Homo sapiens, UniProt Q13822)
RESULT: ≥ 1 µM
--
COMPOUND: CCCCC1CN(CC2CN(CC#N)C(=O)O2)C(=O)c2cc(-c3ccc(Cl)cc3)nn21 (stereo not shown) [Compound I-0299]
TESTED ON: Human autotaxin enzyme (Homo sapiens, UniProt Q13822)
RESULT: 0.01 to 0.1 µM
--
COMPOUND: CC(C)Nc1cc(Cl)ccc1-c1cc2n(n1)[C@@H](C)CN(Cc1ccc(C#N)cc1)C2=O [Compound I-0349]
TESTED ON: Human autotaxin enzyme (Homo sapiens, UniProt Q13822)
RESULT: 0.1 to 1 µM
